Test system: mock-infected MT-4 cells
Assay: Cytotoxicity: viability of mock-infected cells by the MTT method
Format: cell-based, human
Protocol: Cells and viruses. MT-4, C8166,H9/IIIB and CEM cells were grown at 37° C. in a 5% CO2 atmosphere in RPMI 1640 medium, supplemented with 10% fetal calf serum (FCS), 100 IU/mL penicillin and 100 μg/mL streptomycin. […] Anti-HIV Assays. […] After a 4-day incubation at 37° C., the number of viable cells was determined by the 3-(4,5-dimethylthiazol-[…])-2,5-diphenyltetrazolium bromide (MTT) method. Cytotoxicity of the compounds was evaluated in parallel with their antiviral activity. […]
Hi there, I'd appreciate the recorded CC50 for every entry that follows.

Quote CC50 reported for CCC(c1ccccc1)c1cc(=O)[nH]c(SC2CCCC2)n1 (stereo not drawn) please.
> 200 µM

Quote CC50 reported for "O=c1cc(Cc2c(Cl)cccc2Cl)nc(SC2CCCC2)[nH]1" please.
> 200 µM

Quote CC50 reported for CCC(C)Sc1nc(Cc2c(F)cccc2F)cc(=O)[nH]1 (stereo not drawn) please.
200 µM

Quote CC50 reported for "CC(C)Nc1nc(Cc2c(F)cccc2F)cc(=O)[nH]1" please.
> 200 µM

Quote CC50 reported for CCC(C)Sc1nc(Cc2ccccc2C(F)(F)F)cc(=O)[nH]1 (stereo not drawn) please.
> 200 µM

Quote CC50 reported for "Cc1c(Cc2c(F)cccc2F)nc(SC2CCCC2)[nH]c1=O" please.
> 200 µM

Quote CC50 reported for CCC(C)Sc1nc(Cc2ccccc2OC)cc(=O)[nH]1 (stereo not drawn) please.
> 200 µM

Quote CC50 reported for CCC(C)Sc1nc(Cc2ccccc2[N+](=O)[O-])cc(=O)[nH]1 (stereo not drawn) please.
> 200 µM

Quote CC50 reported for "Cc1c(Cc2c(Cl)cccc2Cl)nc(SC(C)C)[nH]c1=O" please.
> 200 µM

Quote CC50 reported for CCC(C)Sc1nc(Cc2ccc([N+](=O)[O-])cc2)c(C)c(=O)[nH]1 (stereo not drawn) please.
> 200 µM

Quote CC50 reported for "CC(C)Sc1nc(Cc2c(F)cccc2F)cc(=O)[nH]1" please.
> 200 µM

Quote CC50 reported for "O=c1cc(Cc2c(Cl)cccc2Cl)nc(SC2CCCCC2)[nH]1" please.
> 200 µM

Quote CC50 reported for "CCCCSc1nc(Cc2c(F)cccc2F)cc(=O)[nH]1" please.
162 µM

Quote CC50 reported for CCC(C)Sc1nc(C(c2ccccc2)c2ccccc2)cc(=O)[nH]1 (stereo not drawn) please.
61 µM

Quote CC50 reported for CCC(c1cc(=O)[nH]c(SC2CCCC2)n1)c1c(Cl)cccc1Cl (stereo not drawn) please.
23.4 µM

Quote CC50 reported for "CC(C)Sc1nc(Cc2c(Cl)cccc2Cl)cc(=O)[nH]1" please.
> 200 µM

Quote CC50 reported for CCC(C)Sc1nc(C(C)c2c(F)cccc2F)c(C)c(=O)[nH]1 (stereo not drawn) please.
200 µM

Quote CC50 reported for "CCCCSc1nc(Cc2c(Cl)cccc2Cl)cc(=O)[nH]1" please.
> 200 µM

Quote CC50 reported for CCC(C)Sc1nc(Cc2cccc(F)c2)cc(=O)[nH]1 (stereo not drawn) please.
> 200 µM

Quote CC50 reported for CCC(c1cc(=O)[nH]c(SC2CCCCC2)n1)c1c(F)cccc1F (stereo not drawn) please.
130 µM

Quote CC50 reported for "O=c1cc(Cc2ccccc2)nc(SCOCc2ccccc2)[nH]1" please.
> 200 µM

* * *

Test system: mock-infected MT-4 cells
Test: Cytotoxicity: viability of mock-infected cells by the MTT method
Type: cell-based, human
MEASUREMENT TYPE: CC50

Quote CC50 reported for CC(c1cc(=O)[nH]c(NC2CCCC2)n1)c1c(F)cccc1F (centres unmarked) please.
75 µM

Quote CC50 reported for CC(C)CSc1nc(C(C)c2c(F)cccc2F)cc(=O)[nH]1 (centres unmarked) please.
> 200 µM

Quote CC50 reported for CC(c1cc(=O)[nH]c(SC2CCCC2)n1)c1cccc2ccccc12 (centres unmarked) please.
93 µM

Quote CC50 reported for "Cc1c(Cc2c(Cl)cccc2Cl)nc(SC2CCCC2)[nH]c1=O" please.
> 200 µM

Quote CC50 reported for "O=c1cc(Cc2c(F)cccc2F)nc(SC2CCCCC2)[nH]1" please.
200 µM

* * *

Hi there, I'd appreciate the recorded CC50 for every entry that follows.
Tested on: mock-infected MT-4 cells
Test: Cytotoxicity: viability of mock-infected cells by the MTT method
Type: cell-based, human
Field format: number, assumed µM, no unit text.

# lookup: mock-infected MT-4 cells CC50, key = Cc1c(Cc2c(F)cccc2F)nc(NCc2ccccc2)[nH]c1=O [MC 1105]
50

# lookup: mock-infected MT-4 cells CC50, key = CCC(C)Sc1nc(Cc2ccc(OC)cc2)cc(=O)[nH]1 (stereo not shown) [MC 964]
147

# lookup: mock-infected MT-4 cells CC50, key = CCC(C)Sc1nc(Cc2ccc(Cl)cc2)cc(=O)[nH]1 (stereo not shown) [MC 859]
120

# lookup: mock-infected MT-4 cells CC50, key = CC(c1cc(=O)[nH]c(SC2CCCCC2)n1)c1cccc2ccccc12 (stereo not shown) [MC 974]
45

* * *

Hi there, I'd appreciate the recorded SI for every entry that follows.
Test system: HIV-1 (IIIB strain)
Type: cell-based
Conditions: selectivity index (CC50/EC50)

Quote SI reported for "Cc1c(Cc2c(Cl)cccc2Cl)nc(SC2CCCCC2)[nH]c1=O" please.
>9

Quote SI reported for "CC(C)Sc1nc(Cc2c(F)cccc2F)cc(=O)[nH]1" please.
>1,000

Quote SI reported for CCC(C)Sc1nc(Cc2cccc(F)c2)cc(=O)[nH]1 (stereo not shown) please.
>286

Quote SI reported for "CSc1nc(Cc2c(Cl)cccc2Cl)c(C)c(=O)[nH]1" please.
>62

Quote SI reported for CC(c1cc(=O)[nH]c(NC2CCCC2)n1)c1c(F)cccc1F (stereo not shown) please.
2,500

Quote SI reported for CC(C)CSc1nc(C(C)c2c(F)cccc2F)cc(=O)[nH]1 (stereo not shown) please.
>4,000

Quote SI reported for "CCc1c(Cc2c(F)cccc2F)nc(SC(C)C)[nH]c1=O" please.
326

Quote SI reported for CCC(C)Sc1nc(Cc2ccccc2OC)cc(=O)[nH]1 (stereo not shown) please.
>208

Quote SI reported for CCC(c1cc(=O)[nH]c(SC2CCCCC2)n1)c1c(Cl)cccc1Cl (stereo not shown) please.
>55.5

Quote SI reported for CC1CC(C)CC(Oc2nc(Cc3ccccc3)cc(=O)[nH]2)C1 (stereo not shown) please.
>6.7

* * *

Tested on: mock-infected MT-4 cells
Assay: Cytotoxicity: viability of mock-infected cells by the MTT method
Assay type: cell-based, human
Hi there, I'd appreciate the recorded CC50 for every entry that follows.
Field format: number, assumed µM, no unit text.

Quote CC50 reported for "CSc1nc(Cc2c(F)cccc2F)cc(=O)[nH]1" please.
200

Quote CC50 reported for CCC(c1ccccc1)c1cc(=O)[nH]c(SC(C)C)n1 (stereo not shown) please.
200

Quote CC50 reported for CCC(c1cc(=O)[nH]c(SC2CCCCC2)n1)c1cccc2ccccc12 (stereo not shown) please.
16.9

Quote CC50 reported for CC(c1ccccc1)c1cc(=O)[nH]c(SC2CCCCC2)n1 (stereo not shown) please.
149

Quote CC50 reported for "Cc1c(Cc2c(F)cccc2F)nc(NC(C)C)[nH]c1=O" please.
190

Quote CC50 reported for CC(C)Sc1nc(C(C)c2c(F)cccc2F)cc(=O)[nH]1 (stereo not shown) please.
167

Quote CC50 reported for Cc1c(Cc2ccccc2)nc(OC2CC(C)CCC2C)[nH]c1=O (stereo not shown) please.
138

Quote CC50 reported for "Cc1c(Cc2c(F)cccc2F)nc(SCC(C)C)[nH]c1=O" please.
64

* * *

Tested on: HIV-1 (IIIB strain)
Type: cell-based
Details: anti-HIV-1 activity, HIV-1-infected MT-4 cells
MEASUREMENT TYPE: pEC50
In plain terms, pEC50 is the concentration in mol/L turned into minus its base-10 logarithm.

Quote pEC50 reported for Cc1c(C(C)c2c(F)cccc2F)nc(SC2CCCC2)[nH]c1=O (centres unmarked) please.
8.05

Quote pEC50 reported for "O=c1cc(Cc2c(F)cccc2F)nc(NC2CCCC2)[nH]1" please.
7.05

Quote pEC50 reported for "CCNc1nc(Cc2c(F)cccc2F)cc(=O)[nH]1" please.
6.10

Quote pEC50 reported for CC(c1cc(=O)[nH]c(SC2CCCCC2)n1)c1c(Cl)cccc1Cl (centres unmarked) please.
5.54

Quote pEC50 reported for CCC(C)Sc1nc(Cc2c(F)cccc2F)cc(=O)[nH]1 (centres unmarked) please.
7.40

* * *

Tested on: HIV-1 (IIIB strain)
Assay type: cell-based
Conditions: selectivity index (CC50/EC50)
Experimental: Compounds. Compounds were solubilized in DMSO at 200 mM and then diluted into culture medium. Cells and viruses. […] HIV Titration. […] The infectious virus titre was determined by light microscope scoring of cytopathicity after 4 days of incubation and the virus titres were expressed as CCID50/mL. Anti-HIV Assays. […] After a 4-day incubation at 37° C., the number of viable cells was determined by the 3-(4,5-dimethylthiazol-[…])-2,5-diphenyltetrazolium bromide (MTT) method. […]
MEASUREMENT TYPE: SI

Quote SI reported for CCC(C)Sc1nc(Cc2ccc(C)cc2)cc(=O)[nH]1 (centres unmarked) please.
333.3

Quote SI reported for CCC(C)Sc1nc(Cc2cccc([N+](=O)[O-])c2)c(C)c(=O)[nH]1 (centres unmarked) please.
>571

Quote SI reported for "CSc1nc(Cc2c(F)cccc2F)c(C)c(=O)[nH]1" please.
1,053

Quote SI reported for "CC(C)Sc1nc(Cc2c(Cl)cccc2Cl)cc(=O)[nH]1" please.
>105

Quote SI reported for "CCCCNc1nc(Cc2c(F)cccc2F)cc(=O)[nH]1" please.
1,000
